# assayComment: Human liver microsomal stability of compound in microsomal protein, PBS buffer pH 7.4, NADPH, glucose-6-phosphate and glucose-6-phosphate dehydrogenase media. Aliquotes were taken at 5 time points and after stopping the reaction, supernatants were analyzed using HPLC coupled with a tandem mass spectrometer. The elimination constant, half-life, and intrinsic clearance are determined as results using linear regression analysis. The assay has been performed by Enamine biological services, Bienta Ltd.The protocol is publicly available: dx.doi.org/10.17504/protocols.io.5qpvokdb9l4o/v1; also: time not given here
# Assay type: ADME, microsomes, Microsome
# assayContext: microsomes
valueType: Remaining (%)

Known Remaining results, listed for orientation:
{"columns": ["recordSmiles", "valueType", "readoutValue"],
 "data": [
  ["CNC(=O)Cn1cc(-c2cc3c(N[C@H](c4ccc5c(c4)S(=O)(=O)CCC5)C(C)C)ncnc3[nH]2)cn1", "Remaining", 23],
  ["CC(C)[C@@H](Nc1ncnc2[nH]c(C(=O)N[C@H]3CCN(C)C3)cc12)c1ccc2c(c1)S(=O)(=O)CCC2", "Remaining", 66],
  ["COc1ccc([C@@H](Cc2nnn[nH]2)NC(=O)c2ncnc3[nH]ccc23)cc1", "Remaining", 86],
  ["O=C(Nc1cccc2c(C(=O)N[C@@H]3c4ccccc4C[C@@H]3C(=O)O)c[nH]c12)NC1CC1", "Remaining", 88],
  ["CC(C)(C)[C@H](Nc1ncnc2[nH]c(-c3cnn(CC(N)=O)c3)cc12)c1ccc2c(n1)OCCO2", "Remaining", 64],
  ["CC(C)[C@H](Nc1ncnc2[nH]c(-c3cnn(CC(N)=O)c3)cc12)c1ccc2c(c1)OCCO2", "Remaining", 43]
]}

(1) COc1ccc2c(c1)CCN(c1ncnc3[nH]ccc13)[C@H]2C(C)C
(2) CC(C)[C@@H](Nc1ncnc2[nH]c(-c3cnn(CC(N)=O)c3)cc12)c1ccc2c(n1)OCCO2
Please compare: 1 and 2 . Report which one has the smaller Remaining value. Reply briefly: the label of your chosen item.
1
